# recorded.conditions: buffer; pH 7.4; 200.0 µM
// map solubility kinetic onto a label; ranges lower band: < 10 µg/mL; central band: ≥ 10 µg/mL and < 20 µg/mL; upper band: ≥ 20 µg/mL

INSERT INTO results (compound, qualitative_label) VALUES
  ('CN(C)C(CNC(=O)c1ccc(Br)cc1)c1ccco1 (centres undefined)', 'upper band'),
  ('COc1ccc(C(=O)OCC(=O)c2ccc3c(c2)NC(=O)CO3)cc1S(=O)(=O)N1CCOCC1', 'central band'),
  ('N=C1/C(=C/c2cccn2Cc2ccc(F)cc2)C(=O)N=C2SC=CN12', 'lower band'),
  ('COC(CNc1ccc([N+](=O)[O-])c(NCC(OC)OC)c1C#N)OC', 'central band'),
  ('CC1COC(Cn2c3ccccc3c3ccccc32)O1 (centres undefined)', 'central band'),
  ('COc1ccc(C(=O)Nc2ccc(S(=O)(=O)N3CCOCC3)cc2)cc1', 'lower band');

[in] Into which bin does this compound go? CCOc1cccc(N2C(=O)/C(=C/c3ccco3)C(=O)NC2=S)c1
[out] central band

[in] Into which bin does this compound go? N#CC1(NC(=O)COC(=O)/C=C/c2ccc3ccccc3n2)CCCCC1
[out] lower band

[in] Into which bin does this compound go? COc1ccc([N+](=O)[O-])cc1NC(=O)c1ccccc1SC
[out] lower band

[in] Into which bin does this compound go? O=C(NCCCO)c1c(O)c2cccc3c2n(c1=O)CCC3
[out] upper band

[in] Into which bin does this compound go? [O-][n+]1ccc(OCc2ccccc2)cc1
[out] upper band

[in] Into which bin does this compound go? CN(C)c1ccc(NC(=O)c2cccc([N+](=O)[O-])c2)c2ccccc12
[out] central band

[in] Into which bin does this compound go? CC(=O)c1c(C)[nH]c(C(=O)Nc2ccc(F)cc2F)c1C
[out] upper band

[in] Into which bin does this compound go? COc1ccc(C(=O)O/N=C(\N)c2ccccc2)cc1
[out] upper band

[in] Into which bin does this compound go? Cc1ccc(CNC(=S)N(C)C)cc1
[out] upper band

[in] Into which bin does this compound go? CC(C)(Oc1ccc(Cl)cc1)C(=O)O/N=C(\N)c1ccncc1
[out] upper band

[in] Into which bin does this compound go? CC(Cl)C(=O)N1c2ccccc2CCc2ccccc21 (centres undefined)
[out] upper band

[in] Into which bin does this compound go? Cn1cccc1/C=C(\C#N)c1ccccc1
[out] central band

[in] Into which bin does this compound go? Nc1ccccc1NC(=O)NC(=O)c1ccccc1
[out] lower band

[in] Into which bin does this compound go? CCN(CC)CCn1c(=S)[nH]c2ccc(Br)cc2c1=O
[out] upper band

[in] Into which bin does this compound go? COc1ccc(/C=C\c2nc(O)c([N+](=O)[O-])c(=O)[nH]2)cc1O
[out] upper band

[in] Into which bin does this compound go? CC(C)OC(=O)Cn1cc(C#N)c2ccccc21
[out] upper band

[in] Into which bin does this compound go? CC(CCc1ccccc1)NC(=O)COC(=O)c1cccn1C (centres undefined)
[out] upper band

[in] Into which bin does this compound go? CCCCCCOc1ccc(C(CC(=O)NC)C(=O)O)cc1 (centres undefined)
[out] upper band

src = PubChem BioAssay AID1996
